All figures here come from a melting point compilation (Tetko et al.; mined from patent text by program, amines drawn as free bases though some values may be those of a salt).

Task for the reader: assign each of the following compounds its reported melting point.

melting point in this record for `CCOC(=O)c1cn(Cc2ccccc2OC)c2c(F)c(F)c(F)cc2c1=O` : 203 to 204 °C

Looking up Cc1nn(C)c2c1N=C(C(C)C)N1CC(C)N=C21 (centres undefined) , I found its melting point recorded as 96 to 97 °C

For this compound ( COc1ccc(C(=O)NC(C)(C#N)c2ccccn2)cc1 (centres undefined) ), measured melting point is 173 °C

melting point reading for `COc1cccc(-c2cccc3c2C(=O)OC(C)(C)O3)n1` : 130 to 132 °C

Input `Cc1c(N2CC[C@H](N(C)C)C2)c(F)c(N)c2c(=O)c(C(=O)O)cn(C3CC3)c12` . Output melting point: 204 to 206 °C

The value of melting point measured for the compound CCOC(=O)C(C)C(O)(c1ccc(OC)cc1)c1ccc(OC)cc1 (centres undefined) turned out to be 67 to 69 °C

Per the records, this compound ( `CCCCCS(=O)(=O)NC(=O)/C=C/c1cc(OC2CCOCC2)nn1Cc1ccc(C(F)(F)F)cc1Cl` ) has melting point equal to 160 to 161 °C

For reference, reported melting point for `N#Cc1cccc(NCC(=O)N2CCC(Cc3ccc(F)cc3)CC2)c1` stands at 138 to 142 °C

compound Cc1c(C#N)cc(C(C)(C)C)c(O)c1C(=O)Nc1ccc(S(=O)c2ccc(Br)cc2)cc1C(F)(F)F (centres undefined) , melting point observed: 178 to 180 °C

###

Exercise: for every item that follows, state its recorded melting point.

Entry `S=Cc1cccc(Cl)c1Cc1ccccc1` ; melting point = 68 to 70 °C

Summary for this compound, `O=S(=O)(Oc1ccc(F)cc1)c1ccc(Oc2ccc(F)cc2)cc1` : melting point is 78 to 83 °C

Measured melting point, CO[C@@H]1CN(Cc2ccccc2)CC[C@H]1NC(=O)c1cccc(C(F)(F)F)c1 (relative stereo) : 135 °C

Reported melting point of `O=C1OC2(CCN(C(=O)Nc3ncc(-c4ccccc4)cn3)CC2)c2cccc(F)c21` : 247 to 249 °C

Briefly, melting point measured for `COc1ccccc1CN1CCCc2cc(OCc3ccccc3)c(OC)cc2C1` : 105 to 106 °C

Briefly, melting point measured for CCCCCCCCCCCCCCCc1cccc(OCC)c1C1NC(=O)NC(C)=C1C(=O)OC (stereo not given) : 127 to 129 °C

Looking up `N#Cc1sc(N)c(C#N)c1Cl` , I found its melting point recorded as 259 °C

# compound `CCCCc1sc(-c2ccccc2)nc1O` ; its melting point = 69 to 71 °C

Quick note, melting point for `CC(=O)N1CCC(Oc2cccc(C(F)(F)F)c2)(c2ccccc2)CC1` landed at 100 to 103 °C

The reported value for O=C1N(Cc2ccc(-c3cccc(Cl)c3)o2)c2ccccc2C12COc1cc3c(cc12)OCO3 (stereo not given) in terms of melting point is 205 to 207 °C

###

PROPERTY: melting point

Reported melting point of CCOCC1=C(C(=O)OCC)C(c2ccc(OC)c(F)c2)C(C(=O)OCC)=C(C)N1 (centres undefined) : 120 °C

Briefly, melting point measured for `O=c1[nH]c2ncc(-c3ccc(O)cc3)nc2n1CC1CCCC1` : 296 to 297 °C

Notebook: `Cc1ncc(CN2CC=C(c3ccc(F)cc3)CC2)c(N)n1` , melting point read as 176 to 178 °C

Field melting point (entry `O=C(Cn1c(=O)c(=O)[nH]c2cc([N+](=O)[O-])c(-n3cccc3)cc21)Nc1ccccc1` ) reads > 300 °C

Sure, the documented melting point for `CCOc1ccc(-c2csc(-c3cccc(C(=O)O)c3)n2)cc1` is 231 to 232 °C

Memo: `FC(F)(F)c1cc(N2CCN(Cc3n[nH]c4ccccc34)CC2)cc(C(F)(F)F)c1` , reported melting point: 155 to 156 °C

Short answer for `CS(=O)(=O)c1ccc(-c2nn(Cc3ccccc3)c(C(F)(F)F)c2-c2ccc(F)cc2)cc1` : melting point was 126 °C

For record `O=c1cc(C(F)(F)F)ncn1-c1c(Cl)cc(C(F)(F)F)cc1[N+](=O)[O-]` the listed melting point is 149 to 150 °C

melting point in this record for `c1ccc2sc3cc4oc5ccccc5sc4cc3oc2c1` : 223 °C
